Protocol details: Pharmacokinetic Assay, single oral dose 5 mg/kg (Table 12)
Format: in vivo
Run parameters: mouse; plasma concentration, C57 female mice, single oral dose 5 mg/kg, 0.5 h
Readout label: concentration at 0.5 h (ng/mL)
Numbers only, in ng/mL.

Observe how each entry below is paired with its result.
Cc1c(-c2nc3c(o2)CCOC3)cccc1-c1cccc(-c2nc3cc(CN4CCC[C@H]4C(=O)O)c(OC(F)F)cc3o2)c1C    819
Cc1c(-c2ccc(CN3Cc4ccccc4C3)c(F)c2)cccc1-c1cccc(-c2nc3cc(CN4CCC[C@H]4C(=O)O)c(OC(F)F)cc3o2)c1C    102
Cc1c(-c2ccc(CN3CC[C@@H](c4ccccc4)C3)c(F)c2)cccc1-c1cccc(-c2nc3cc(CN4CCC[C@H]4C(=O)O)c(OC(F)F)cc3o2)c1C    89

Your task in this section: give concentration at 0.5 h for each listed record.
1. Cc1c(-c2nc3cc(CN4CC[C@@H](C(=O)O)C4)c(OC(F)F)cc3o2)cccc1-c1cccc(-c2nc3cc(CN4CC(C)(C)C4)c(OC(F)F)cc3o2)c1C
2. Cc1c(-c2nc3cc(CN4CCC[C@H]4C(=O)O)c(OC(F)F)cc3o2)cccc1-c1cccc(-c2nc3cc(CN4CCCC4)c(F)c(F)c3n2CC(F)(F)F)c1C
3. Cc1c(-c2nc3cc(CN4CCC[C@H]4C(=O)O)ccc3o2)cccc1-c1cccc(-c2nc3cc(CN4CCCC4)c(OC(F)F)cc3o2)c1C

## Result
75.9
27.9
20.6

---

Protocol details: Pharmacokinetic Assay, single oral dose 5 mg/kg (Table 12)
Type: in vivo
Run parameters: mouse; plasma concentration, C57 female mice, single oral dose 5 mg/kg, 0.5 h
Readout label: log10 concentration at 0.5 h (log10 of the value in ng/mL)
Use the decimal logarithm of concentration at 0.5 h (ng/mL).

Known results for molecules:
Cc1c(-c2nc3cc(CN4CCC[C@H]4C(=O)O)c(OC(F)F)cc3o2)cccc1-c1cccc(-c2nc3cc(CN(C)CC#N)cc(C#N)c3o2)c1C [Example 136]    2.83
COC1CCN(Cc2ccc(-c3cccc(-c4cccc(-c5nc6cc(CN7CCC[C@H]7C(=O)O)c(OC(F)F)cc6o5)c4C)c3C)cc2)C1 (stereo partly drawn) [Example 227]    1.57

Batch of 6 molecules: report log10 concentration at 0.5 h for each.
1. Cc1c(-c2nc3cc(CN4CCC[C@H]4C(=O)O)c(OC(F)F)cc3o2)cccc1-c1cccc(-c2nc3cc(CN4CCCC4)cc(C#N)c3o2)c1C [Example 127]
2. Cc1c(-c2ccc3[nH]c(N)nc3c2)cccc1-c1cccc(-c2nc3cc(CN4CCC[C@H]4C(=O)O)c(OC(F)F)cc3o2)c1C [Example 293]
3. COc1nc(-c2cccc(-c3cccc(-c4nc5cc(CN6CCC[C@H]6C(=O)O)c(OC(F)F)cc5o4)c3C)c2C)ccc1CN1CC[C@@H](C)C1 [Example 272]
4. Cc1c(-c2nc3cc(CN4CC(C#N)C4)c(OC(F)F)cc3o2)cccc1-c1cccc(-c2nc3cc(CN4CCC[C@H]4C(=O)O)c(OC(F)F)cc3o2)c1C [Example 80]
5. C=C1CN(Cc2cc3nc(-c4cccc(-c5cccc(-c6nc7cc(CN8CCC[C@H]8C(=O)O)c(OC(F)F)cc7o6)c5C)c4C)oc3cc2OC(F)F)C1 [Example 81]
6. Cc1c(-c2nc3c(o2)CCCC3)cccc1-c1cccc(-c2nc3cc(CN4CCC[C@H]4C(=O)O)c(OC(F)F)cc3o2)c1C [Example 205]

## Result
1. 1.79
2. 0.82
3. 1.82
4. 2.39
5. 2.06
6. 3.00

Need log10 concentration at 0.5 h for each of these molecules.
1. Cc1c(-c2nc3cc(CN4CCC[C@H]4C(=O)O)c(OC(F)F)cc3o2)cccc1-c1cccc(-c2nc3cc(CN4CCCC4)c(F)c(F)c3o2)c1C [Example 102]
2. Cc1c(-c2nc3cc(CN4CCC[C@H]4C(=O)O)c(OC(F)F)cc3o2)cccc1-c1cccc(-c2nc3cc(CN4CC[C@@H](C)C4)cnc3o2)c1C [Example 114]
3. COc1nc(-c2cccc(-c3cccc(-c4nc5cc(CN6CCC[C@H]6C(=O)O)c(OC(F)F)cc5o4)c3C)c2C)cnc1CN1CCCC1 [Example 285]

## Result
[1.93, 1.82, 1.59]

Would you be so kind as to report log10 concentration at 0.5 h for each listed record?
1. Cc1c(-c2ccc(CN3CC[C@H](COCc4ccccc4)C3)c(F)c2)cccc1-c1cccc(-c2nc3cc(CN4CCC[C@H]4C(=O)O)c(OC(F)F)cc3o2)c1C [Example 252]
2. Cc1c(-c2ccc(CN3CC(C)(C)C3)c(F)c2)cccc1-c1cccc(-c2nc3cc(CN4CCC[C@H]4C(=O)O)c(OC(F)F)cc3o2)c1C [Example 237]

## Result
1: 2.84; 2: 1.77
